Reference for the values: ChEMBL document CHEMBL1131732

# testSystem: GABA-A receptor; anion channel (Rattus norvegicus) (UniProt O09028+P15431+P18506+P18508+P19969+P20236+P23574+P23576+P28471+P28473+P30191+P62813+P63079+P63138+Q91ZM7+Q9ES14)
# assayInfo: GABA shift which is the ratio of binding in the absence and presence of GABA (1 mM) was determined
# Format: protein-complex assay
measure: GS
Give bare numbers.

For this compound ( "O=C(Nc1ccccc1F)C1=C(O)CCn2c1nc1c(O)cccc12" ), measured GS is 3

Each of the following entries comes with a recorded value; kindly state GS for each.
1. COc1cccc2c1nc1n2CCC(O)=C1C(=O)Nc1c(F)cccc1F
2. O=C(Nc1c(F)cccc1F)C1=C(O)CCn2c1nc1c(Cl)cccc12
3. O=C(Nc1ccccc1)C1=C(O)CCn2c1nc1cc(O)ccc12
4. O=C(Nc1ccccc1F)C1=C(O)CCn2c1nc1cc(C(F)(F)F)ccc12
5. O=C(Nc1c(F)cccc1F)C1=C(O)CCn2c1nc1ccc(F)c(F)c12
6. O=C(Nc1ccccc1F)C1=C(O)CCn2c1nc1c3ccccc3ccc12

3.7
1.7
1.1
4.7
1.7
2.8

Batch of 6 compounds: report GS for each.
1. O=C(Nc1ccccc1F)C1=C(O)CCn2c1nc1cc(Cl)ccc12
2. O=C(Nc1ccccc1)C1=C(O)CCn2c1nc1ccc(Cl)cc12
3. Cc1cccc2c1nc1n2CCC(O)=C1C(=O)Nc1ccccc1
4. COc1cccc2c1nc1n2CCC(O)=C1C(=O)Nc1ccccc1F
5. O=C(Nc1ccccc1F)C1=C(O)CCn2c1nc1cccnc12
6. O=C(Nc1ccccc1F)C1=C(O)CCn2c1nc1c(F)cc(F)cc12

1: 1.8; 2: 2.1; 3: 2.8; 4: 1.4; 5: 1.3; 6: 1.2

Value sought for every listed compound: GS.
1. O=C(Nc1ccccc1F)C1=C(O)CCn2c1nc1cc3ccccc3cc12
2. O=C(Nc1c(F)cccc1F)C1=C(O)CCn2c1nc1cc(Cl)ccc12
3. CN1C(=O)CN=C(c2ccccc2)c2cc(Cl)ccc21
4. Cc1cccc2c1nc1n2CCC(O)=C1C(=O)Nc1ccccc1F

1. 1
2. 2.2
3. 2.2
4. 1.5

----------
# testSystem: GABA-A receptor; anion channel
# assayInfo: In vitro inhibitory against Gamma-aminobutyric acid A receptor from rat cerebral cortex using [3H]flunitrazepam as the radioligand
Please respond with reported IC50 for every item in the list.
One number for each entry, in nM.

Look over these answered cases.
Considering "COc1ccc2c(c1)nc1n2CCC(O)=C1C(=O)Nc1ccccc1F" , its IC50 with GABA-A receptor; anion channel was recorded as 6.1

Entry "Cc1cccc2c1nc1n2CCC(O)=C1C(=O)Nc1ccccc1" under GABA-A receptor; anion channel had IC50 of 10.1

Summary: "O=C(Nc1ccccc1)C1=C(O)CCn2c1nc1ncccc12" , GABA-A receptor; anion channel, IC50 = 8.3

Okay, here is my list. What is IC50 for each of these?
1. O=C(Nc1c(F)cccc1F)C1=C(O)CCn2c1nc1cc(F)ccc12
2. O=C(Nc1ccccc1F)C1=C(O)CCn2c1nc1c(O)cccc12
3. COc1cccc2c1nc1n2CCC(O)=C1C(=O)Nc1ccccc1F
4. O=C(Nc1ccccc1F)C1=C(O)CCn2c1nc1c(Cl)cccc12
5. O=C(Nc1c(F)cccc1F)C1=C(O)CCn2c1nc1cc(Cl)ccc12
6. O=C(Nc1ccccc1F)C1=C(O)CCn2c1nc1cccc(O)c12

1: 6.3; 2: 10.4; 3: 7.8; 4: 7.1; 5: 6.3; 6: 14

----------
Answer each item with its documented GS.
# testSystem: GABA-A receptor; anion channel (Rattus norvegicus) (UniProt O09028+P15431+P18506+P18508+P19969+P20236+P23574+P23576+P28471+P28473+P30191+P62813+P63079+P63138+Q91ZM7+Q9ES14)
# assayInfo: GABA shift which is the ratio of binding in the absence and presence of GABA (1 mM) was determined
# Assay type: protein-complex assay
Answers are plain numbers.

Some compounds with known GS results, for comparison:
Per the records, this compound ( "O=C(Nc1ccccc1F)C1=C(O)CCn2c1nc1c(Cl)cccc12" ) has GS equal to 1.8

Query "O=C(Nc1ccccc1)C1=C(O)CCn2c1nc1ncccc12" yields GS of 3

The compound listed as "O=C(Nc1ccccc1F)C1=C(O)CCn2c1nc1cc(F)ccc12" shows GS equal to 1.8

Parameters: items (list). Returns: GS for each item.
1. COc1ccc2c(c1)nc1n2CCC(O)=C1C(=O)Nc1ccccc1
2. O=C(Nc1ccccc1F)C1=C(O)CCn2c1nc1c(F)c(F)ccc12
3. O=C(Nc1ccccc1)C1=C(O)CCn2c1nc1cccnc12
4. O=C(Nc1ccccc1F)C1=C(O)CCn2c1nc1ncccc12
5. O=C(Nc1ccccc1F)C1=C(O)CCn2c1nc1cccc(O)c12
6. O=C(Nc1ccccc1)C1=C(O)CCn2c1nc1cc(Cl)ccc12

[2.5, 1.7, 2.1, 2.7, 2.8, 1.6]

For this compound ( "O=C(Nc1c(F)cccc1F)C1=C(O)CCn2c1nc1cnccc12" ), measured GS is 2.4
